test: molar heat capacity at constant pressure; settings: 323.15 K; 101.33 kPa; Liquid; Large sample (1 g) DSC
Rule for this label: true means molar heat capacity at constant pressure is less than 500 J/K/mol; false means molar heat capacity at constant pressure is at least 500 J/K/mol.

{"compound": "CCCC[N+]1(C)CCCC1.O=S(=O)([O-])C(F)(F)F [1-butyl-1-methylpyrrolidinium trifluoromethanesulfonate]", "label": "true"}
{"compound": "CCCCO", "label": "true"}
{"compound": "CCCCCCOS(=O)(=O)[O-].CC[n+]1ccn(C)c1 [3-ethyl-1-methyl-1H-imidazolium hexyl sulfate]", "label": "false"}
{"compound": "CCn1cc[n+](C)c1.O=S(=O)([N-]S(=O)(=O)C(F)(F)F)C(F)(F)F", "label": "false"}
{"compound": "CCCCn1cc[n+](C)c1C.O=S(=O)([O-])C(F)(F)F [1-butyl-2,3-dimethylimidazolium trifluoromethanesulfonate]", "label": "true"}
{"compound": "COCC[N+]1(C)CCCC1.O=S(=O)([N-]S(=O)(=O)C(F)(F)F)C(F)(F)F", "label": "false"}
